Reported IC50 values follow for various molecules
- assay.target: HPK1 (SLP76 phosphorylation at Ser376 in Jurkat and EL-4 cells) (Homo sapiens)
- Sequence (Q92918 whole entry, looked up): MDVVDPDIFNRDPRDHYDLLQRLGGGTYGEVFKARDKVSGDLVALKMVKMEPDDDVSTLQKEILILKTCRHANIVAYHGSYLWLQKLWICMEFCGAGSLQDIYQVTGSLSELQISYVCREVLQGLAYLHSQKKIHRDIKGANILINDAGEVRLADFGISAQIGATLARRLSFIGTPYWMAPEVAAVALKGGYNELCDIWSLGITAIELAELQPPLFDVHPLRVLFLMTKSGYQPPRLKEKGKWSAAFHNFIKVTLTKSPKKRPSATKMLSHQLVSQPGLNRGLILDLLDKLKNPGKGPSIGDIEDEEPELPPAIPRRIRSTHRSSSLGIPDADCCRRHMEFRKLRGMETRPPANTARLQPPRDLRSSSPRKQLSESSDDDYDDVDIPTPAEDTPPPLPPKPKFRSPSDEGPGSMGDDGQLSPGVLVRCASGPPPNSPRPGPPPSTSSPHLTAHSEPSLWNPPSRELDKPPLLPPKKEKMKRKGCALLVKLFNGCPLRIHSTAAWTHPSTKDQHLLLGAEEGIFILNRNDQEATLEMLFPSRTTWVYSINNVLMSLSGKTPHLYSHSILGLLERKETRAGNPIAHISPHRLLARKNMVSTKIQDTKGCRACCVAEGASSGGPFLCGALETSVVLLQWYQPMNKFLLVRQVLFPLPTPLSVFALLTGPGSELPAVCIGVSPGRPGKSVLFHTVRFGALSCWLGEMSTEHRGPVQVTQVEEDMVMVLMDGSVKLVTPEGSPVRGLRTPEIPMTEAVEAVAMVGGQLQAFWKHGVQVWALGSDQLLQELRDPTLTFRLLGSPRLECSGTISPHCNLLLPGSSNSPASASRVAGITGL
- Assay type: cell-based
- assay.setup: αCD3/αCD28 Dynabeads stimulated cells, pSLP76 (Ser376) detection; read-out: HPK1 pSLP76 IC50

CCc1cc(Nc2ncc3c(n2)CN(c2cnc4c(c2C)NCCO4)CC3)ccc1N1CCC(O)CC1    500 to 1000 nM
COCCN1CCc2cc(Nc3cc4c(cn3)CCN(c3cnc5c(c3C)NCCO5)C4)nn2CC1=O    < 500 nM
Cc1c(N2CCc3cnc(Nc4ccc(CS(=O)(=O)C5CC5)cn4)cc3C2)cnc2c1NCCO2    < 500 nM
Cc1c(N2CCc3cnc(Nc4ccc(CO)cc4)nc3C2)cnc2c1NCCO2    < 500 nM
CCc1c(N2CCc3cnc(Nc4ccc(CS(C)(=O)=O)cc4)nc3C2)cnc2c1NCCO2    < 500 nM
CN1CCc2cc(Nc3cc4c(cn3)CCN(c3cnc5c(c3Cl)NCCO5)C4)nn2CC1=O    500 to 1000 nM

// query Name the recorded IC50 of the item Cc1ccncc1N1CCc2cnc(Nc3cnc4c(c3)CN(C)CC4)nc2C1 in your answer.
// result > 1000 nM

// query Name the recorded IC50 of the item Cc1c(N2CCc3cnc(Nc4ccc(CN5CCOCC5)cc4)nc3C2)cnc2c1NCCO2 in your answer.
// result 500 to 1000 nM

// query Name the recorded IC50 of the item Cc1c(N2CCc3cnc(Nc4cnc5c(c4)CNCC5)nc3C2)cnc2c1NCCO2 in your answer.
// result 500 to 1000 nM

// query Name the recorded IC50 of the item Cc1c(N2CCc3cnc(Nc4ccc(NCCN(C)C)c(F)c4)nc3C2)cnc2c1NCCO2 in your answer.
// result < 500 nM

====

- assay.target: HPK1 (SLP76 phosphorylation at Ser376 in Jurkat and EL-4 cells) (Homo sapiens)
- Type: cell-based
- assay.setup: αCD3/αCD28 Dynabeads stimulated cells, pSLP76 (Ser376) detection; read-out: HPK1 pSLP76 IC50
pIC50: −log10 of the molar value.
Reported pIC50 values follow for various compounds

In the examples that follow, each entry is paired with its recorded pIC50.
Cc1c(N2CCc3cnc(Nc4ccc(NC(=O)CN5CCOCC5)nc4)cc3C2)cnc2c1NCCO2    < 6.00
Cc1c(N2CCc3cnc(Nc4ccc(CS(C)(=O)=O)cc4)nc3C2)cnc2c(F)c[nH]c12    > 6.30
Cc1cc(Nc2ncc3c(n2)CN(c2cnc4c(c2Cl)NCCO4)CC3)ccc1NC(=O)CN1CCC1    > 6.30
Cc1c(N2CCc3cnc(Nc4ccc(CS(C)(=O)=O)cc4)cc3C2)cnc2c1NCCO2    > 6.30
Cc1c(N2CCc3cnc(Nc4ccc(C(C)(C)S(C)(=O)=O)cc4)nc3C2)cnc2c1NCCO2    6.00 to 6.30

// query Name the recorded pIC50 of the item Cc1cc(Nc2cc3c(cn2)CCN(c2cnc4c(c2C)NCCO4)C3)ccc1NCCN1CCOCC1 in your answer.
// result 6.00 to 6.30

// query Name the recorded pIC50 of the item Cc1c(N2CCc3cnc(Nc4ccc(NC(=O)CN(C)C)nc4)cc3C2)cnc2c1NCCO2 in your answer.
// result < 6.00

// query Name the recorded pIC50 of the item Cc1c(N2CCc3cnc(Nc4cc5n(n4)CC(=O)N(C(C)C)CC5)cc3C2)cnc2c1NCCO2 in your answer.
// result > 6.30

// query Name the recorded pIC50 of the item CN1CCc2ncc(Nc3ncc4c(n3)CN(c3cnc5c(c3)NCCO5)CC4)cc2C1 in your answer.
// result < 6.00

// query Name the recorded pIC50 of the item Cc1c(N2CCc3cnc(Nc4ccc(CC#N)cc4)nc3C2)cnc2c1NCCO2 in your answer.
// result > 6.30

// query Name the recorded pIC50 of the item COCCOCC(=O)Nc1ccc(Nc2ncc3c(n2)CN(c2cnc4c(c2C)NCCO4)CC3)cc1C in your answer.
// result > 6.30

// query Name the recorded pIC50 of the item Cc1c(N2CCc3cnc(Nc4cccc(CS(C)(=O)=O)c4)nc3C2)cnc2c1NCCO2 in your answer.
// result > 6.30

// query Name the recorded pIC50 of the item Cc1c(N2CCc3cnc(Nc4cccc(S(C)(=O)=O)c4)nc3C2)cnc2c1NCCO2 in your answer.
// result > 6.30

// query Name the recorded pIC50 of the item Cc1cc(Nc2ncc3c(n2)CN(c2cnc4c(c2C)NCCO4)CC3)ccc1NCCN1CCOCC1 in your answer.
// result 6.00 to 6.30

// query Name the recorded pIC50 of the item Cc1c(N2CCc3cnc(Nc4ccnc(C5CCOCC5)c4)nc3C2)cnc2c1NCCO2 in your answer.
// result > 6.30

// query Name the recorded pIC50 of the item Cc1c(N2CCc3cnc(Nc4ccc(CS(C)(=O)=O)cc4)nc3C2)cnc2c1NCCC2O (stereo not shown) in your answer.
// result > 6.30
